Listed next: entries and their corresponding growth.
System: HOP-62 NSCLC
Procedure Details: NCI-60 one-dose screen, 48 h (100 = growth as untreated, 0 = no growth, -100 = all killed)
Condition Info: 10 µM unless noted
The panel holds about 83,000 compounds, 20% with a hit somewhere; the sample as a whole holds those more often.
State the answer as a number, implicitly in %.

// known answers, use as guide
• COc1ccc(-c2c(N)n[nH]c2-c2ccc(Cl)cc2O)cc1OC = 91.5
• Cc1cccc(Cc2cnc(NC(=O)/C=C/c3ccco3)s2)c1 = 23.7
• CCOc1ccccc1-c1cc(-c2cccs2)c(C#N)c(=O)[nH]1 = 81.5
• Cc1c(Cl)cc(-n2c(=O)c3ccccc3c3ccccc3c2=O)cc1Cl = 92.6
• Cc1ccc(S(=O)(=O)N/N=C\c2cc(Cl)ccc2O)cc1 = 105
• CCN(CC)Cc1cccc(C(=O)OC)c1 = 85.2
• N=C1C(c2nc(-c3ccc(Br)cc3)cs2)=C(O)CN1Cc1cccnc1 = 43.6
• Cc1nc2c(c(N3CCCc4ccccc43)n1)CCC2 = 4.68

Field growth (HOP-62 NSCLC), entry Nc1nc(N)c2c(n1)NC(c1ccccc1)C1CCc3ccccc3C1=N2 (stereo unspecified) : 70.2

For the compound Cc1ccc(/C=C2\C(=O)N(C)c3ccc(S(=O)(=O)Nc4ccc(C(C)(C)C)cc4)cc32)s1 , the measured growth on HOP-62 NSCLC was 31.8

Reported HOP-62 NSCLC growth for item CCCCCS(=O)(=O)Nc1ccc(C(=O)O)cc1 was 98.2

====

Test system: HCT-116 colon
Procedure Details: NCI-60 one-dose screen, 48 h
Condition Info: 10 µM unless noted
About 83,000 compounds went through this panel and 20% of them were active in at least one assay; those are over-represented in the sample as a whole. Active and inactive are the calls of the source. Rule for the calls: active = growth percent below 10; inactive = the rest.
Field 'call' accepts yes for active, no for inactive

The following molecules have reported results that may help.
- O=c1c2cc(F)ccc2sc2c(NCCCN3CCCC3)nc3ccccc3c12: no
- COc1ccc(/C=c2\nc3n(-c4ccccc4)c4nc5c6c(sc5c(=N)n4n-3c2=O)CCCC6)cc1: no
- CCSC1=NC2C(N(CC)C(=O)N2CC)N1/N=C/C=C/c1ccccc1[N+](=O)[O-] (stereo not given): yes
- COc1ccc2c(c1)C(=O)/C(=C/c1ccc(OCC(=O)Nc3nccs3)cc1)O2: no

Lab log entry: C[C@]12CC[C@@H]3c4cc(OC(F)F)c(O)cc4CC[C@H]3[C@@H]1CC[C@@H]2OS(N)(=O)=O — outcome as called in the assay?
no

====

Test system: HCC-2998 colon
Procedure Details: NCI-60 one-dose screen, 48 h (100 = growth as untreated, 0 = no growth, -100 = all killed)
Condition Info: 10 µM unless noted
About 83,000 compounds went through this panel and 20% of them were active in at least one assay; those are over-represented in the sample as a whole.
compounds and their reported growth
Note: unit % is implicit; provide only the numeric part.

Answered examples (5):
• COC1=C(OC)C(=O)C(OC)=C(OC)C1=O = 89.3
• Cc1ccc(-c2c(-c3ccccc3)c(=O)oc3ccc(C)cc23)cc1 = 90.5
• Cc1ccc(N2CCN(C(=S)c3cccs3)CC2)cc1 = 94.3
• Cc1cc(C)c2c(-c3nnc(N)s3)cc(=O)oc2c1 = 108
• O=C(NC(Cc1nnc2n(Cc3ccccc3)c(=O)c3c4c(sc3n12)CCCC4)c1ccc(Cl)cc1)c1ccccc1 (stereo unspecified) = 68.5

Let us move to another entry and its growth.
// sample FC(F)(F)c1cc(Nc2ccc3cc(OCCCN4CCOCC4)ccc3n2)ccc1Cl , its growth was -18.5
